target under test: T1, anti-CD28 Fab (SEQ ID NOs: 202, 203)
T1 construct: biotinylated and captured on neutravidin coated plates in the phage ELISA
T1 sequence (VH, as listed by the source, chain 1 of 2): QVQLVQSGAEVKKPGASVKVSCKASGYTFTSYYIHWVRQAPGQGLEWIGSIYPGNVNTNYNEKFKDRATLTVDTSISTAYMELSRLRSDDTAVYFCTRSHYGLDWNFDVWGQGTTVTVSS
T1 sequence (VL, as listed by the source, chain 2 of 2): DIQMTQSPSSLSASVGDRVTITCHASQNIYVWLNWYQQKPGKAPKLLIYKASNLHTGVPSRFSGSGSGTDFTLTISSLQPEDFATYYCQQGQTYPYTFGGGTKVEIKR
assay explanation: phage binding ELISA; Fab wells pre-incubated with CD28 antigen (competitor);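 also: clonal phage supernatants added to wells preincubated with CD28 antigen in blocking buffer versus blocking buffer alone, washed, bound phage read by HRP-conjugated anti-M13 antibody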
quantity name: Anti-CD28 Fab signal in the presence of CD28
Returns: the value as a bare number; no unit string appended.

>>> value("YCDGHLPEYMGKCL [Phage-316]")
0.11
>>> value("YCEGHKPEYMQKCL [Phage-447]")
0.06
>>> value("YCEGHSPLYMSKCL [Phage-331]")
0.09
>>> value("YCDGHSALYMSKCL [Phage-333]")
0.08
>>> value("YCEGHLSEYMSKCL [Phage-324]")
0.09
>>> value("YCDGHLPEYMRKCL [Phage-330]")
0.08

Consider the binder YCDGHSSEYIAKCL [Phage-383] and give its recorded Anti-CD28 Fab signal in the presence of CD28. 0.07

Consider the binder YCEGHSWEYIGKCL [Phage-332] and give its recorded Anti-CD28 Fab signal in the presence of CD28. 0.07

Consider the binder YCDGLASEYMSKCL [Phage-382] and give its recorded Anti-CD28 Fab signal in the presence of CD28. 0.05

Consider the binder YCEGHLPIYMSKCL [Phage-388] and give its recorded Anti-CD28 Fab signal in the presence of CD28. 0.09

Consider the binder YCEGHSPWYMNKCL [Phage-449] and give its recorded Anti-CD28 Fab signal in the presence of CD28. 0.06

Consider the binder YCAGHLPEYMLKCL [Phage-387] and give its recorded Anti-CD28 Fab signal in the presence of CD28. 0.09

Consider the binder YCDGHTGVYFYKCL [Phage-334] and give its recorded Anti-CD28 Fab signal in the presence of CD28. 0.08

Consider the binder YCAGHLPEYLSKCL [Phage-345] and give its recorded Anti-CD28 Fab signal in the presence of CD28. 0.07

Consider the binder YCDGHSWAYMWKCL [Phage-341] and give its recorded Anti-CD28 Fab signal in the presence of CD28. 0.13

Consider the binder YCAGHSSEYMWKCL [Phage-340] and give its recorded Anti-CD28 Fab signal in the presence of CD28. 0.07

Taken from patent US20260274955A1.
